Recorded pIC50 by entry
Target: Endothelial PAS domain-containing protein 1 (Homo sapiens)
Assay: HIF-2a and HIF-1a reporter inhibition panel, dose response, selectivity assay for HIF-2a inhibitor project, cell-based, luminescence (AID 651581)
Conditions: HIF-2a, run 2
pIC50: −log10 of the molar value.
ATTRIBUTE_MEASURED: pIC50

Cc1ccc(C(C)C)c(OCc2ccc(C(=O)N/N=C/c3ccc(C(=O)O)cc3)cc2)c1: 6.32
Cc1ccc(S(=O)(=O)ON2C(=O)c3ccccc3C2=O)c(C)c1: 5.25
CCN(CC)S(=O)(=O)c1ccc(NC(=O)c2cccnc2Cl)c(NC(=O)c2cccnc2Cl)c1: 4.98
CC(=O)Nc1ccc(OS(=O)(=O)c2ccc(C)cc2C)cc1: 5.41
O=C(Nc1ccccc1)c1nnsc1S(=O)(=O)c1ccc(Cl)cc1: 5.09
Cc1nc2cc(-c3ccc(Cl)cc3)nn2c(C)c1CCC(=O)NCc1ccco1: 5.84
FC(F)(F)c1cnc(NNC(=S)Nc2ccccc2)c(Cl)c1: 5.15
COc1ccc(OCc2cccc(C(=O)NN)c2)cc1: 5.09
COc1ccccc1N1C(=O)C=C(Sc2nc(C)cc(C)n2)C1=O: 4.93
O=C(O)c1cccc(-c2nc3ccccc3[nH]2)c1: 4.81
COC(=O)Cc1ccc(NC(=O)c2ccc(C(C)(C)C)cc2)cc1: 6.62
O=[N+]([O-])C1C(c2ccccc2)C12c1ccccc1-c1ccccc12 (configuration not stated): 5.20
COc1ccc2nc(-c3ccc(N)cc3)[nH]c2c1: 5.92
O=C(O)c1ccc(N/N=C/c2ccc(C(F)(F)F)cc2)cc1: 5.00
CC1(C)CC[C@]2(C(=O)O)CC[C@]3(C)C(=CC[C@@H]4[C@@]5(C)CC[C@H](O[C@@H]6O[C@H](C(=O)O)[C@@H](O)[C@H](O[C@@H]7OC[C@H](O)[C@H](O)[C@H]7O)[C@H]6O)C(C)(C)[C@@H]5CC[C@]43C)[C@@H]2C1: 4.84
NNC(=O)COc1ccc(-c2nccc(-c3ccc(F)cc3)n2)cc1: 5.56
CCOC(=O)c1cccc(COC(=O)c2cccc(-c3nnc(-c4ccccc4)o3)c2)c1: 4.78
Cc1ccc(C)c(S(=O)(=O)ON2C(=O)c3ccccc3C2=O)c1: 5.08
NC(=O)COC(=O)CCCSc1nc2ccccc2s1: 5.07
Cc1ccc(NC(=O)c2cc(N3C(=O)C=CC3=O)ccc2N2CCOCC2)cc1Cl: 5.25
CCNC(=O)NC(=O)COC(=O)CCCSc1nc2ccccc2s1: 5.30
COc1ccc(C(=O)/C=C/C(=O)N(CC(=O)NCCC(C)C)Cc2cccs2)c(O)c1: 5.45
CSC(SC)=C(C#N)C(=O)c1ccccc1: 5.24
CC(=O)Nc1ccc(NC(=O)c2c([N+](=O)[O-])c(C(C)(C)C)nn2C)cc1: 4.94
Cc1ccc(C)c(-c2nc3cc(N)ccc3o2)c1: 5.57
Cc1ccc(Oc2ccc(OCC(=O)Nc3ccncc3)cc2)cc1: 5.21
O=C(Nc1ccc(NC(=S)NC(=O)c2ccco2)cc1)c1ccc(Br)cc1: 6.06
Cc1ccc(C(=O)c2cccc(N)c2)cc1C: 6.06
O=Cc1cn(Cc2cccc([N+](=O)[O-])c2)c2ccccc12: 6.01
CC(=O)Nc1ccc(NC(=O)c2ccc(-c3ccnn3C)c3ccoc23)cc1: 6.11
COc1ccc(CNC(=O)c2nc(S(=O)(=O)Cc3ccccc3)ncc2Cl)cc1: 5.05
COc1cc(/C=C/[N+](=O)[O-])ccc1O: 4.99
Cc1ccc(S(=O)(=O)Nc2cccc3cccnc23)cc1: 5.96
C/C(=N\OCc1cccc(C(=O)O)c1)c1ccc(Cl)cc1: 5.23
